- SUBJECT_OF_TEST: T1, high affinity SIRP-α D1 variant CV1-3
- T1 chain: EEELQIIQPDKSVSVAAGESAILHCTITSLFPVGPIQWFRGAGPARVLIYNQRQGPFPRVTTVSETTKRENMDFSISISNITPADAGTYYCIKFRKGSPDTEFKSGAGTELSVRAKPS
- TEST: SPR, Langmuir fit
The following binders are shown together with reported koff values.

- BINDER: "S25 (scFv, V domains shown, also called clone 25; scFv-Fc form of AB25) VH: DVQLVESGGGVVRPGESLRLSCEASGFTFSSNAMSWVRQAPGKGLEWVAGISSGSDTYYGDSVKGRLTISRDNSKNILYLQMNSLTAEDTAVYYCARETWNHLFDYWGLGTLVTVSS VL: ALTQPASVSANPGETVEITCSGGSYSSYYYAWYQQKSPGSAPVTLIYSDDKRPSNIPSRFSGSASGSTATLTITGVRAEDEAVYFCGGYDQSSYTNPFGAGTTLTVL"
  UNIT_TEXT: "s⁻¹"
  koff: 0.00014
- BINDER: "S21 (scFv, V domains shown, also called clone 21; scFv-Fc form of AB21) VH: DVQLVESGGGVVRPGESLRLSCAASGFTFSSNAMSWVRQAPGKGLEWLAGISAGGSDTYYPASVKGRFTISRDNSKNTLYLQMNTLTAEDTAVYYCARETWNHLFDYWGLGTLVTVSS VL: ALTQPASVSANPGETVKIACSGGDYYSYYYGWYQQKAPGSALVTVIYSDDKRPSDIPSRFSGSASGSTATLTITGVRAEDEAVYYCGGYDYSTYANAFGAGTTLTVL"
  UNIT_TEXT: "s⁻¹"
  koff: 0.000195
- BINDER: "S28 (scFv, V domains shown, also called clone 28) VH: DVQLVESGGGVVRPGESLRLSCAASGFSFSSNAMSWVRQAPGKGLEWVAGISASGDTYYSGSMKGRFTISRDNSKNTLYLQMNSLTAEDTAVYYCARETWNHLFDYWGLGTLVTVSS VL: ALTQPASVSANPGETVKITCSGGSDSYYYGWHQQKSPGSAPVTVIYSDDQRPPDIPSRFSGSASGSTTTLTITGVRAEDEAVYYCGGYDYSTYTNTFGAGTTLTVL"
  UNIT_TEXT: "s⁻¹"
  koff: "6.59e-05"

Taken from patent US20210363269A1.
